The measured values listed here are drawn from ChEMBL document CHEMBL3414469.

tested target: DNMT3A2/3L complex (Homo sapiens, UniProt Q9Y6K1)
Sequence (Q9Y6K1 whole entry, looked up, one chain of several): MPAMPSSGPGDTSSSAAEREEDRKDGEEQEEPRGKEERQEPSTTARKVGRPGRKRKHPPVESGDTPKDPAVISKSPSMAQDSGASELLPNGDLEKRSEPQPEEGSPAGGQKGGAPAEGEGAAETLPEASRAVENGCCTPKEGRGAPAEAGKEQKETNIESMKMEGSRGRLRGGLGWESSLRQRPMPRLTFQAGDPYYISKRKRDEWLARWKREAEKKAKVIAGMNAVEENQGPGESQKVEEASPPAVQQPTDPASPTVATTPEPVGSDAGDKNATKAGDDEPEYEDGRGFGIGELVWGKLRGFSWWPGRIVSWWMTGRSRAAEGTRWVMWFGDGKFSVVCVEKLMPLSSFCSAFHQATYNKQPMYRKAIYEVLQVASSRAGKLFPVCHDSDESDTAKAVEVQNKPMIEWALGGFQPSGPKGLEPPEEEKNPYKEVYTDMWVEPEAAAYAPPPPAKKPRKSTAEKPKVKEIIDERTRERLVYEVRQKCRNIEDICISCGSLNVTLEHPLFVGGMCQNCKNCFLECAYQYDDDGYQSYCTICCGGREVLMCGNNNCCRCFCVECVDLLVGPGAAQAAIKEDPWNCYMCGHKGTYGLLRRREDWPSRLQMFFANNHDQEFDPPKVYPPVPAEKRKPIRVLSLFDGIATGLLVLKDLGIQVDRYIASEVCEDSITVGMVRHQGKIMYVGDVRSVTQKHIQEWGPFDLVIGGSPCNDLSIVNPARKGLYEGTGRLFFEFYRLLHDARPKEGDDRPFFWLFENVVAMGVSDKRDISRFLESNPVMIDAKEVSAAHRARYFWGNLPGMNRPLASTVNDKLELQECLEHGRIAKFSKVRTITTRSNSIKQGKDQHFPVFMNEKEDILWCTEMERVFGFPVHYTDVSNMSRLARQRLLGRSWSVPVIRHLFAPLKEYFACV
assay: Inhibition of His6-tagged human recombinant DNMT3A/DNMT3L expressed in insect Sf9 cells assessed as reduction in DNA methyltransferase activity using 5'-biotinylated 45-bp unmethylated or hemimethylated oligonucleotide substrates and [3H]-AdoMet by liquid scintillation counting method
pIC50: −log10 of the molar value.
metric name: pIC50

>  <item smiles>
O=C1C(Cl)=C(Cl)C(=O)c2ccccc21

>  <pIC50>
6.30

$$$$

[1] O=C(O)[C@H](Cc1c[nH]c2ccccc12)N1C(=O)c2ccccc2C1=O
[2] CCN(CC)CCNC(=O)c1ccc(NCCCCCCCCCCCCN2C(=O)c3ccccc3C2=O)cc1
input: Of 1 and 2 , which shows the smaller pIC50 value? Answer format: the label of the selected item.
output: 1
(1: 3.50, 2: 4.68)
